A collection of compounds and their measured IC50
- testedTarget: UniProtKB O75762
- Sequence (O75762 whole entry): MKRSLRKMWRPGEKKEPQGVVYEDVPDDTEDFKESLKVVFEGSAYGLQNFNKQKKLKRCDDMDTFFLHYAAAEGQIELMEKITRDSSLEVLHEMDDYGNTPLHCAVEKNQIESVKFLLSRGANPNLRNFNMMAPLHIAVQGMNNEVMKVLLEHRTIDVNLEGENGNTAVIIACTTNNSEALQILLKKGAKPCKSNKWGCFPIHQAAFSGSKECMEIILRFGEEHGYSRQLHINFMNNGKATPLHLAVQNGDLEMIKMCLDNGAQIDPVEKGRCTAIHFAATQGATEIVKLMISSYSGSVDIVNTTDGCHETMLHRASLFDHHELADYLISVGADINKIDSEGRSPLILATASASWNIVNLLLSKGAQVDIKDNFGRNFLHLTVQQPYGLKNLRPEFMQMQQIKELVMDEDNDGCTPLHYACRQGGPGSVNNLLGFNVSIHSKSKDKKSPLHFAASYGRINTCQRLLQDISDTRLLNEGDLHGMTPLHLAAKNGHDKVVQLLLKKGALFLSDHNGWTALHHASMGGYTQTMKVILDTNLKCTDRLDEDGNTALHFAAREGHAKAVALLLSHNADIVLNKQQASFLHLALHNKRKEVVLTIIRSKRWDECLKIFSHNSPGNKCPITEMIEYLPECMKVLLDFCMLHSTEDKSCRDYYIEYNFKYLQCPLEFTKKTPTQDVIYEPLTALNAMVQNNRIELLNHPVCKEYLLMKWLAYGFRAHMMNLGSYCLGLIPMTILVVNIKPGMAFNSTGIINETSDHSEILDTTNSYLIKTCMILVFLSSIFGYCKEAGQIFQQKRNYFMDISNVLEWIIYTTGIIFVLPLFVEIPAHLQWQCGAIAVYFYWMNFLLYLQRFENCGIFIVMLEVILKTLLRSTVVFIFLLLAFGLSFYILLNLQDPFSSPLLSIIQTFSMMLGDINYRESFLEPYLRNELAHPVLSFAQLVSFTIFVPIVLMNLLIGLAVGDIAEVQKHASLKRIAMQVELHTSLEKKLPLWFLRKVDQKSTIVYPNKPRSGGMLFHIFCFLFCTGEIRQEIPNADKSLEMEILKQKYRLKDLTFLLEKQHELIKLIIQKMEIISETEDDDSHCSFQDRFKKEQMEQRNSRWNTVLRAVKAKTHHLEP
- experimentNotes: Measurement of TRPA1 antagonist activity (intracellular calcium increase induced by allylisothiocyanate in 293T cells transfected with human TRPA1)
- testParameters: 293T cells expressing human TRPA1, allylisothiocyanate stimulation, FLIPR Calcium4 fluorescence; read-out: hTRPA1 IC50
The response must be a number in nM with no trailing unit.

Illustrative cases are given below, each with its answer.
input: Would you kindly share the measured IC50 for CC(C)n1c(=O)c(CNC(=O)[C@@H]2CCCN2S(=O)(=O)c2cc3cc(F)ccc3o2)cn(-c2ccc(C(F)(F)F)cc2)c1=O [Example 3] ?
output: 7.3

input: What about this compound? CC(C)n1c(=O)c(CNC(=O)[C@@H]2CCCN2S(=O)(=O)c2cc3c(F)cccc3o2)cn(-c2ccc(C(F)(F)F)cc2)c1=O [Example 10]
output: 25

input: Next record, please: CC(C)n1c(=O)c(CNC(=O)[C@@H]2[C@@H](O)CCN2S(=O)(=O)c2cc3cc(F)ccc3o2)cn(-c2ccc(C(F)(F)F)nc2)c1=O [Example 31]
output: 380

input: Lookup CC(C)n1cc(CNC(=O)[C@@H]2CCCN2S(=O)(=O)c2cc3ccccc3o2)cc(-c2ccc(C(F)(F)F)cn2)c1=O [Example 50]
output: 110

input: Try this compound next: CC(C)n1c(=O)c(CNC(=O)[C@@H]2CCCN2S(=O)(=O)c2cc3cc(F)ccc3o2)cn(-c2ccc(F)cc2)c1=O [Example 39]
output: 100

Others:
input: Can you share its IC50? I mean this compound: CC(C)n1c(=O)c(CNC(=O)[C@@H]2CCCN2S(=O)(=O)c2ccc(F)cc2)cn(-c2ccc(C(F)(F)F)cc2)c1=O [Example 12]
output: 120

input: Try the compound CC(C)n1c(=O)c(CNC(=O)[C@H](C)NS(=O)(=O)c2cc3cc(F)ccc3o2)cn(-c2ccc(C(F)(F)F)cc2)c1=O [Example 24]
output: 42

input: Try CC(C)n1c(=O)c(CNC(=O)[C@@H]2[C@@H](O)CCN2S(=O)(=O)c2cc3cc(F)ccc3o2)cn(-c2ccc(C(F)(F)F)cc2)c1=O [Example 8] next.
output: 64

input: Do the same for C[C@H](NS(=O)(=O)c1cc2cc(F)ccc2o1)C(=O)NCc1cn(-c2ccc(C(F)(F)F)cc2)c(=O)n(C)c1=O [Example 6] please
output: 540

input: Also CC(C)n1c(=O)c(CNC(=O)[C@@H]2CCCN2S(=O)(=O)c2ccc(Cl)s2)cn(-c2ccc(C(F)(F)F)cc2)c1=O [Example 11] ?
output: 33

input: What do you get for CC(C)n1cc(CNC(=O)[C@@H]2CCCN2S(=O)(=O)c2cc3c(F)cccc3o2)cc(-c2ccc(C(F)(F)F)cc2)c1=O [Example 45] ?
output: 86

input: Next up: Cc1ccc2oc(S(=O)(=O)N3CCC[C@H]3C(=O)NCc3cn(-c4ccc(C(F)(F)F)cc4)c(=O)n(C(C)C)c3=O)cc2c1 [Example 25]
output: 420

input: Please do the same for CC(C)n1c(=O)c(CNC(=O)[C@@H]2CCCN2S(=O)(=O)c2cc3cc(F)ccc3o2)cn(-c2ccc(C(F)(F)F)cn2)c1=O [Example 34] as well.
output: 18
